// provenance: paper PMC3713010

# System: T1, Oct6 DNA-binding domain (BD-Oct6) (Mus musculus (B6), UniProt P21952 317-416)
# T1 sequence: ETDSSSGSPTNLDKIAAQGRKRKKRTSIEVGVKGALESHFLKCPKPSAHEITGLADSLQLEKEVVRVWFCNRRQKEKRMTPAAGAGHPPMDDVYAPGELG
# Measurement notes: EMSA; 10% glycerol, 20 mM HEPES pH 7.8, 45 mM KCl, 10 mM NaCl, 1 mM EDTA, 1 mM DTT, 0.2 ug/uL BSA, 0.1% NP-40, 50 ng poly-dIdC; 20 ng each GST protein; room temperature 30 min (heterodimers 4 C); 6% PAGE 0.25x TBE
# Measurement conditions: protein: recombinant; tags: GST (N-terminal, pGEX-6P-1); label: 32P-dCTP fill-in of the 5' (dG)5 overhangs of both strands (Methods; control probes are given with GGG)
Quantity kind: binding result

Example entries begin here.
INSERT INTO results (binder, reported_value) VALUES
  ('22 (dsDNA) DNA 1: GGGGGTACATACAGCAAAATAATCTTTGTAGGGGGGACCCCC DNA 2: GGGGGTCCCCCCTACAAAGATTATTTTGCTGTATGTACCCCC', 'no binding'),
  ('15 (dsDNA) DNA 1: GGGGGAGATCTTTACAAATTTCTATATTAGAGTTTTTTGTCCCCC DNA 2: GGGGGACAAAAAACTCTAATATAGAAATTTGTAAAGATCTCCCCC', 'no binding'),
  ('21 (dsDNA) DNA 1: GGGGGCAGAATCATTTGTGTTTTCCCATTTTTGCCAGGGGCCCCC DNA 2: GGGGGCCCCTGGCAAAAATGGGAAAACACAAATGATTCTGCCCCC', 'no binding'),
  ('32 (dsDNA) DNA 1: GGGGGCGTTGCACACAAACCTTAATTTTCCAATCTATTCCCCC DNA 2: GGGGGAATAGATTGGAAAATTAAGGTTTGTGTGCAACGCCCCC', 'binds'),
  ('108 (dsDNA) DNA 1: GGGGGCATCTTATCGTTAATATATACGTTTGTTACATATACCCCC DNA 2: GGGGGTATATGTAACAAACGTATATATTAACGATAAGATGCCCCC', 'binds'),
  ('77 (dsDNA) DNA 1: GGGGGTATGTCTATTTGTTTTTTATTTTTTGAAGACTCCCCC DNA 2: GGGGGAGTCTTCAAAAAATAAAAAACAAATAGACATACCCCC', 'no binding');

Now for a further binder.
Inquiry: Sample 40 (dsDNA) DNA 1: GGGGGTTTGTCATTTTGTAGTGCTAGGAATTAAACCCATGTCCCCC DNA 2: GGGGGACATGGGTTTAATTCCTAGCACTACAAAATGACAAACCCCC — what was its binding result?
Reply text: binds
